SUBJECT OF TEST: Af-GlnK3 (Archaeoglobus fulgidus, UniProt O28524, F97I)
Construct: full length, pET21a, C-terminal pentahistidine tag kept, three Ala (113-115) inserted in linker before tag; E. coli BL21(DE3) Rosetta; 13 kDa monomer, homotrimer; forward primer encodes MKMVVAVI, reverse end TGDEEV; sites between monomers
Sequence (O28524 12-120 F97I): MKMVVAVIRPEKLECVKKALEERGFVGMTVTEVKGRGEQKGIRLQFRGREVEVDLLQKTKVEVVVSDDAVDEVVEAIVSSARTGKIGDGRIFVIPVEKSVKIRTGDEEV
TEST DETAILS: isothermal titration calorimetry, one-site model
CONDITION LABEL: read-out: Dissociation constantKD
MEASURED ENDPOINT: Kd (µM)

[P] Nc1ncnc2c1ncn2[C@@H]1O[C@H](COP(=O)(O)OP(=O)(O)O)[C@@H](O)[C@H]1O [ADP]
[Q] Nc1ncnc2c1ncn2[C@@H]1O[C@H](COP(=O)(O)OP(=O)(O)OP(=O)(O)O)[C@@H](O)[C@H]1O [ATP]
-- ask Record comparison, field Kd: mark the lower of P and Q . State the label of the item chosen.
-- reply Q
(Q: 149 µM, P: 373 µM)
